Test system: T47D
assay_explanation: NCI tumour cell line growth inhibition, 48 h
The source made the active and inactive calls. Cut-off read from the data, not from the text of the source: active = GI50 up to about 1.1 µM and inactive = higher.
Valid outcomes are listed here; reply with one: 1 for active, -1 for inactive

Please state the recorded outcome for this molecule: CC[C@@]1(O)C(=O)OCc2c1cc1n(c2=O)Cc2c-1nc1ccc(O)cc1c2CC[Si](C)(C)C
1

So what was the verdict on COc1cccc2c1OC1c3ccccc3OCC1C2 (stereo not given) in this test?
-1

Which outcome was assigned to COc1ccc(Nc2nnc(-c3nsc4ccccc34)s2)cc1 in this test?
-1

// outcome(item) with item = O=C1/C(=C/c2ccccc2S)N=C(c2ccccc2)N1c1ccc2c(c1)Sc1cc(N3C(=O)/C(=C/c4ccccc4S)N=C3c3ccccc3)ccc1N2
-1

Entry COc1ccc(/N=N/C(=N/NC(=O)c2ccccc2)c2ccc(N(CCC#N)CCC#N)cc2C)cc1 : call = ?
-1
